system.name: T1, AgrA (6xHis-SaAgrA) (Staphylococcus aureus, UniProt Q5HEG2 1-238)
T1 sequence: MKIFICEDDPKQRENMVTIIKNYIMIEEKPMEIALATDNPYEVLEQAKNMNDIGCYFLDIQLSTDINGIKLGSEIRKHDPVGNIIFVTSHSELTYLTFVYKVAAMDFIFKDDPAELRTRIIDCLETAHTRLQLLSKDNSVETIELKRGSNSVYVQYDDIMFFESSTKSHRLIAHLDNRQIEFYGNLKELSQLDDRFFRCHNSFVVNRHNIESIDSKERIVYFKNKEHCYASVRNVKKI
experiment.summary: SPR; non-CoAlated; ka 5.75e3 1/Ms, kd 1.01e-2 1/s; SPR (Biacore 2000, SA chip, ~500 RU DNA): 20 mM HEPES pH 7.6, 250 mM KCl, 10% glycerol; 30 uL/min; temperature not stated; 1:1 Langmuir fit
assay.context: protein: recombinant; tags: 6xHis; chain copies: 2; label: 5' biotin (immobilized on SA chip); blunt
property: Kd

> print(dat)
                                     binder  property  observed.value
1  P2 promoter (dsDNA) DNA 1: TAACAGTTAAGTATTTATTTCCTACAGTTAGGCA DNA 2: TGCCTAACTGTAGGAAATAAATACTTAACTGTTA        Kd         1750 nM
